The measurements presented in this section are drawn from patent US20040220164A1.

Target: UniProt:P01730
Assay: CD4 down-modulation, flow cytometry with FITC-conjugated anti-CD4 (SK3) mAb, SupT1 cells
Assay type: cell-based
Parameters: To study the effect of the CADA derivatives on surface CD4 antigen expression, MT-4 and SupT1 cells were incubated; endogenous in cells; host or cells: MT-4, SupT1, PBMC
Details: day 4, read-out: IC50 CD4 (50% inhibition of extracellular CD4 expression) (converted)
Description: Flow Cytometric Analyses. To study the effect of the CADA derivatives on surface CD4 antigen expression, MT-4 and SupT1 cells were incubated with a serial 5-fold dilution of the compounds (50, 10, 2, 0.4 and 0.08 μg/ml) or medium at 37° C. Cell surface CD4 antigen expression was analyzed at day 3 (MT-4) or day 4 (SupT1). […] Then the cells were washed, fixed with 1% formaldehyde and analyzed by flow cytometry in a FACScalibur (Becton Dickinson, San Jose, Calif., USA). […]
readout-kind: IC50 (nM)
The response must be a number in nM with no trailing unit.

response.value for "C=C1CN(S(=O)(=O)c2ccc(Br)cc2)CCCN(Cc2ccccc2)CCCN(S(=O)(=O)c2ccc(Br)cc2)C1" (field: IC50) = 2490

Reported IC50 for "Cc1ccc(S(=O)(=O)N2CCCN(Cc3ccccc3)CCCN(S(=O)(=O)c3ccc(C)cc3)CC(CO)C2)cc1" was 5280

Reported IC50 ( "C=C1CN(S(=O)(=O)c2ccc(C)cc2)CCCN(Cc2ccccc2)CCCN(S(=O)(=O)c2ccc(C)cc2)C1" ) = 980
